Assay: Particle size analysis (PSD), Malvern Mastersizer
Assay type: physicochemical
Conditions: co-milled with 0.5 % w/w magnesium stearate

Molecule Smiles	Units Label	d50
CC[N+]1(CC)CCCN(c2ccccc2)CC1	µm	1.86

----------
Experiment: Particle size analysis (PSD), Malvern Mastersizer
Format: physicochemical
Settings: co-milled with 1.0 % w/w magnesium stearate
Readout Type: d90 (µm)

Molecule Smiles	Units Label	Result Value
CC[N+]1(CC)CCCN(c2ccccc2)CC1	µm	3.17

----------
Assay: Particle size analysis (PSD), Malvern Mastersizer
Type: physicochemical
Conditions: co-milled with 0.5 % w/w magnesium stearate

Molecule	d90 [µm]
CC[N+]1(CC)CCCN(c2ccccc2)CC1 [ASM-024]	3.94
